- protocol_details: Confirmatory qHTS for small molecule stabilizers of the endoplasmic reticulum resident proteome: Secreted ER Calcium Modulated Protein (SERCaMP) assay (AID 1508628); further: nearly all actives have a fitted effect of over 40% in size
- condition_info: SERCaMP secreted luciferase ER calcium/proteostasis reporter; series mostly up to 76.3 µM
Inconclusive results are not listed. Activity calls are given as the source filed them. The call rests on the fitted dose curve; in most records, active means well fitted inhibition curve with a large enough effect; inconclusive means small, poorly fitted or top-dose-only effect; inactive means no such curve, though single readings can be large or run the other way.
Classes used: active, inactive

>>> category("CCC(=O)c1ccc2c(c1)N(CCCN(C)C)c1ccccc1S2")
"inactive"
>>> category("c1cc(CN2CCCCC2)cc(OCCCNc2nc3ccccc3s2)c1")
"active"
>>> category("CN1C[C@H](C(=O)N[C@]2(C)O[C@@]3(O)[C@@H]4CCCN4C(=O)[C@H](Cc4ccccc4)N3C2=O)C[C@@H]2c3cccc4[nH]cc(c34)C[C@H]21")
"active"
>>> category("CCc1cccc(N(C)C(N)=Nc2cccc3ccccc23)c1")
"active"
